assay_target: Ba/F3 EGFR Wild-type (Homo sapiens, UniProt P00533)
Sequence (P00533 whole entry, change not shown): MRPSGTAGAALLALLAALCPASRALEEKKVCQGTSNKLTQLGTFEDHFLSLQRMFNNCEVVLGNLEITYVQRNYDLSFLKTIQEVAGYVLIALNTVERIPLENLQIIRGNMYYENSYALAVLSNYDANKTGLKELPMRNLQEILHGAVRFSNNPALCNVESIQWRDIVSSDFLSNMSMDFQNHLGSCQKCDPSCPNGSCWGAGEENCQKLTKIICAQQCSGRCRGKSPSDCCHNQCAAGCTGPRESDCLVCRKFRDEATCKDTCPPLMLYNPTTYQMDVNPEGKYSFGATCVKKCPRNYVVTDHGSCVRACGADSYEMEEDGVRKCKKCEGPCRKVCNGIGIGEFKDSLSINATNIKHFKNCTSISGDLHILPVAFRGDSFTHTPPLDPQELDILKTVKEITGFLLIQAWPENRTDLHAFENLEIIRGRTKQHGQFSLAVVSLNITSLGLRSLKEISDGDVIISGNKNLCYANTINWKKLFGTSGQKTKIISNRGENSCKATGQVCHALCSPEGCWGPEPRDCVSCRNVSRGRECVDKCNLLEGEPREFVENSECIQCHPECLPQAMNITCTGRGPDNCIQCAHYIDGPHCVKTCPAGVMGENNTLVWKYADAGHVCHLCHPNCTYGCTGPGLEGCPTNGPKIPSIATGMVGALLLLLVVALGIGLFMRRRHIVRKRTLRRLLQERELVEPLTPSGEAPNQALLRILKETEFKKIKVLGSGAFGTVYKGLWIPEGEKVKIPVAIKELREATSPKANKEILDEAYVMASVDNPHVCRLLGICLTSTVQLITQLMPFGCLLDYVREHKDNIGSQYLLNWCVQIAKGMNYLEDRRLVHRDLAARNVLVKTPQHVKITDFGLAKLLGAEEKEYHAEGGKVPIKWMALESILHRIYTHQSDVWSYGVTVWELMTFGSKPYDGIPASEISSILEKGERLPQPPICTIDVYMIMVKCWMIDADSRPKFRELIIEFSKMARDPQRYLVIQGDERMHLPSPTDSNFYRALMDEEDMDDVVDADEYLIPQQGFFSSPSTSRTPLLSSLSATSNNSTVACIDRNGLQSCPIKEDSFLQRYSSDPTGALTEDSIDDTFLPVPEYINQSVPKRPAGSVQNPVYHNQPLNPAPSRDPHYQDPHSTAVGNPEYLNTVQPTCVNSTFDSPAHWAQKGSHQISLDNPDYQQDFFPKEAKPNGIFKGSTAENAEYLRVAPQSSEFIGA
assay_summary: CellTiter-Glo cell viability, Ba/F3 EGFR wild-type cells
Format: cell-based, murine
condition_context: 72 hours, read-out: Ba/F3 EGFR mutant cell (IC50, nM) WT
observed_property: GI50 (nM)
Answer in nM, number only, no unit symbol.

Guide cases for GI50, answers given:
{"molecule": "CCS(=O)(=O)Nc1c(Nc2nc(Nc3cc(C)c(N4CCC(N5CCN(C)CC5)CC4)cc3OC)ncc2Br)ccc2nccnc12", "measurement": 397}
{"molecule": "CCc1cc(Nc2ncc(Br)c(Nc3ccc4nccnc4c3NS(C)(=O)=O)n2)c(OC)cc1N1CCC(N2CCOCC2)CC1", "measurement": 318}
{"molecule": "COc1cc(N2CCC(N(C)C)CC2)c(C)cc1Nc1ncc(Br)c(Nc2ccc3nccnc3c2N(C)S(C)(=O)=O)n1", "measurement": 595}
{"molecule": "COc1cc(N2CCC(N3CCOCC3)CC2)c(C)cc1Nc1ncc(Br)c(Nc2ccc3nccnc3c2NS(C)(=O)=O)n1", "measurement": 416}
{"molecule": "COc1ccc(Nc2nc(Nc3cc(C)c(N4CCC(N(C)C)CC4)cc3OC)ncc2Cl)c(NS(C)(=O)=O)c1", "measurement": 263}
{"molecule": "COc1cc(N2CCOCC2)c(C)cc1Nc1ncc(Br)c(Nc2ccc3nccnc3c2NS(C)(=O)=O)n1", "measurement": 858}
{"molecule": "CCc1cc(Nc2ncc(Cl)c(Nc3ccc4nccnc4c3NS(C)(=O)=O)n2)c(OC)cc1N1CCC(N(C)C)CC1", "measurement": 1860}
{"molecule": "CCc1cc(Nc2ncc(Br)c(Nc3cccc(OC)c3N(C)S(C)(=O)=O)n2)c(OC)cc1N1CCC(N2CCN(C)CC2)CC1 [Example C29]", "measurement": 669}

Short answer for CCc1cc(Nc2ncc(F)c(Nc3ccc4nccnc4c3NS(C)(=O)=O)n2)c(OC)cc1N1CCC(N2CCN(C)CC2)CC1 : GI50 was 524

Short answer for COc1cc(N2CC[C@H](N3CCN(C)CC3)[C@H](F)C2)ccc1Nc1ncc(Cl)c(Nc2ccc3nccnc3c2NS(C)(=O)=O)n1 : GI50 was 576

Short answer for COc1cc(N2CCC(N(C)C)CC2)c(C)cc1Nc1ncc(Br)c(Nc2cccc(OC)c2NS(C)(=O)=O)n1 : GI50 was 288
